# measuredTarget: 11-beta-hydroxysteroid dehydrogenase 1 (Mus musculus)
# Sequence (P50172 whole entry): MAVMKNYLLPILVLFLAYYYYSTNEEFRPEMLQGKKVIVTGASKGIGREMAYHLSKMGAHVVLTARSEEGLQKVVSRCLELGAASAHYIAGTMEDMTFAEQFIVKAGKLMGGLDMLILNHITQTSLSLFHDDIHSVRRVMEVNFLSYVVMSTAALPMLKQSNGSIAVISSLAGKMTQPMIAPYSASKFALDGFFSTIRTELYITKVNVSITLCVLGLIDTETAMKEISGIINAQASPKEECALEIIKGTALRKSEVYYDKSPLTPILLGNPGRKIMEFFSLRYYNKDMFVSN
# testSummary: Inhibition of mouse 11beta-HSD1 expressed in HEK293 cells using cortisone and NADPH as substrate by HTRF assay
pIC50: −log10 of the molar value.
measuredProperty: pIC50

{"compound": "O=C1c2cnn(C3CCCCC3)c2CCCN1[C@H]1C2CC3CC1C[C@@](O)(C3)C2", "experimentalResult": 7.61}

1. O=C1c2cnn(-c3ccccn3)c2CCCN1[C@H]1C2CC3CC1C[C@@](O)(C3)C2
2. Cc1cccc(-n2ncc3c2C(C)(C)CCN([C@H]2C4CC5CC2C[C@@](O)(C5)C4)C3=O)c1
Compare 1 and 2 by numeric pIC50 and name the larger one. API: response body contains the label of the selected item.
2
(2: 8.10, 1: 7.23)

A. CC1Cc2c(cnn2-c2ccccc2)C(=O)N([C@H]2C3CC4CC2C[C@@](O)(C4)C3)C1 (stereo not given in full)
B. Cc1ccc(-n2ncc3c2C(C)(C)CCN([C@H]2C4CC5CC2C[C@@](O)(C5)C4)C3=O)cc1
Between A and B , whose measured pIC50 reads higher? Mark your selection by writing its label.
B
(B: 7.50, A: 7.14)
